# mean fluorescence intensity annotations
- TEST SYSTEM: his-labeled human IL-13 (immunogen A) (human) (UniProt P35225)
- PROTOCOL: FACS blocking, biotin-IL-13 on IL-13Ra1/IL-4Ra HEK293 cells; antibody at 0.002 nM
Form field (numeric): enter value without unit.

Recorded results for 3 binders are shown here.
c70F10A10 (mouse-human chimeric IL-13 antibody) (antibody, V domains shown) VH: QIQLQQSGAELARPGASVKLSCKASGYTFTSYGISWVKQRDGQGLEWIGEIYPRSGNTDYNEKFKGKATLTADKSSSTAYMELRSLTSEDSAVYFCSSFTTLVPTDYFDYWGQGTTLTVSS VL: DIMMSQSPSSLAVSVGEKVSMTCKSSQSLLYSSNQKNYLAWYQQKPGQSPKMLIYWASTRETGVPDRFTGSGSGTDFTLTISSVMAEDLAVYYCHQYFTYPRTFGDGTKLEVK ... 96
c35E2C3 (mouse-human chimeric IL-13 antibody) (antibody, V domains shown) VH: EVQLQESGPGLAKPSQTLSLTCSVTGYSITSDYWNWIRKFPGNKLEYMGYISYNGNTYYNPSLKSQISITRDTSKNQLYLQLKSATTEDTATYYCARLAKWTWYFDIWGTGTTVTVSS VL: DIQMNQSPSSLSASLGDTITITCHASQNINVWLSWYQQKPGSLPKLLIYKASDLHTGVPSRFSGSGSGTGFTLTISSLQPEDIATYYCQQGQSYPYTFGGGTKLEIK ... 102
c28A2E11 (mouse-human chimeric IL-13 antibody) (antibody, V domains shown) VH: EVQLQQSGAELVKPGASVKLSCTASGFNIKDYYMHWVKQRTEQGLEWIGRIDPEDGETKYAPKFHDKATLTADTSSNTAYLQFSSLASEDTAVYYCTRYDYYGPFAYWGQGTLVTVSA VL: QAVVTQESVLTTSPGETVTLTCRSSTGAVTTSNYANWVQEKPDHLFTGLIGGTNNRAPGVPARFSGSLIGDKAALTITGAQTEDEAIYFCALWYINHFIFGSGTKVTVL ... 102

Note: attention shifts to another entry.
Task: Look at this binder and give its reported mean fluorescence intensity. 70F10A10 (lead antibody, mouse hybridoma) (antibody, V domains shown) VH: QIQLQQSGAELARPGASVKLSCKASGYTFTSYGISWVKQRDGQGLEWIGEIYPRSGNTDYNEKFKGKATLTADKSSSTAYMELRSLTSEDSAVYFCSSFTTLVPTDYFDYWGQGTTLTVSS VL: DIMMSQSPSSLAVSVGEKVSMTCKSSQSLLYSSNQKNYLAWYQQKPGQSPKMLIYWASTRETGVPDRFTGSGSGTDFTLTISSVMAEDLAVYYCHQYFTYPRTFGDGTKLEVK
Result: 72.5
